Quick list: % kill of Raji cells at 10 µg/mL per entry.
- SYSTEM_UNDER_TEST: human CD74, naturally expressed on cells (Raji, Daudi, M4A4, NCI-H747 cells; human tonsil tissue) (human) (UniProt P04233)
- ASSAY: cell-based or functional assay
ASSAY_METRIC: % kill of Raji cells at 10 µg/mL (%)

BINDER	VAL
HuMab-CD74-006-mcMMAF (antibody, IgG1, V domains shown, drug-linker mcMMAF alkylated to the cysteines of the reduced antibody (DAR 3.7-4.1), Antibody-drug conjugate of HuMab-CD74-006 (IgG1,kappa)) VH: QVQLVESGGGVVQPGRSLRLSCAASGFTFSSYAMHWVRQAPGKGLEWVAVISYDGSIKYYADSVKGRFTISRDNSKNTLYLQMNSLRVEDTAVFYCARGREITSQNIVILLDYWGQGTLVTVTS VL: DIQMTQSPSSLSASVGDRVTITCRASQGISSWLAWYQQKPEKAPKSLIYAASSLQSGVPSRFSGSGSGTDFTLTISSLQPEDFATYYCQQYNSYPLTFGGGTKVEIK	93
HuMab-CD74-005-mcMMAF (antibody, IgG1, V domains shown, drug-linker mcMMAF alkylated to the cysteines of the reduced antibody (DAR 3.9-4.0), Antibody-drug conjugate of HuMab-CD74-005 (IgG1,kappa); also called mcMMAF-conjugate of HuMab-CD74-005) VH: QVQLVESGGGVVQPGRSLRLSCAASGFTFSSYAMHWVRQAPGKGLEWVAVISYDGSNKYYADSVKGRFTISRDNSKNTLYLQMNSLRAEDTAVYYCASGRYYGSGSYSSYFDYWGQGTLVTVSS VL: DIQMTQSPSSLSASVGDRVTITCRASQGISSWLAWFQQKPEKAPKSLIYAASSLQSGVPSRFSGSGSGTDFTLTISSLQPEDFATYYCQQYNSYPLTFGGGTKVEIK	92
HuMab-CD74-006-vcMMAE (antibody, IgG1, V domains shown, drug-linker vcMMAE alkylated to the cysteines of the reduced antibody (DAR 4.0), Antibody-drug conjugate of HuMab-CD74-006 (IgG1,kappa); also called vcMMAE-conjugated HuMab-CD74-006) VH: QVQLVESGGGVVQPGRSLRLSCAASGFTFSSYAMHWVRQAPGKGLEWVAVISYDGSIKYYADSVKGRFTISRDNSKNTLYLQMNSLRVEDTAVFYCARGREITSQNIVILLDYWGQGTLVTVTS VL: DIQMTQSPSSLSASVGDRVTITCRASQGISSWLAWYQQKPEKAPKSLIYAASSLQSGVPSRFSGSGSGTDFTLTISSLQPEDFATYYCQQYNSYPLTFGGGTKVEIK	90
HuMab-CD74-011-vcMMAE (antibody, IgG1, V domains shown, drug-linker vcMMAE alkylated to the cysteines of the reduced antibody (DAR 3.8-3.9), Antibody-drug conjugate of HuMab-CD74-011 (IgG1,kappa); also called vcMMAE-conjugated HuMab-CD74-011) VH: QVQLVESGGGVVQPGRSLRLSCAASGFTFSSYGMHWVRQAPDKGLEWVAVIWYDGSNKYYADSVKGRFTISRDNSKNTLYLQMNSLRAEDTAVYYCARGGTLVRGAMYGTDVWGQGTTVTVSS VL: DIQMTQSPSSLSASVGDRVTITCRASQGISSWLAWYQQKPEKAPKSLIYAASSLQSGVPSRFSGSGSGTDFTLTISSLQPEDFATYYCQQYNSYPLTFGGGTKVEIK	89
HuMab-CD74-011-mcMMAF (antibody, IgG1, V domains shown, drug-linker mcMMAF alkylated to the cysteines of the reduced antibody (DAR 3.9 by HIC), Antibody-drug conjugate of HuMab-CD74-011 (IgG1,kappa)) VH: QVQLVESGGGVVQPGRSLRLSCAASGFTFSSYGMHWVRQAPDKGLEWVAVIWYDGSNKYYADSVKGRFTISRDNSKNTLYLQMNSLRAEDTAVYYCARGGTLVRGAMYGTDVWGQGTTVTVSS VL: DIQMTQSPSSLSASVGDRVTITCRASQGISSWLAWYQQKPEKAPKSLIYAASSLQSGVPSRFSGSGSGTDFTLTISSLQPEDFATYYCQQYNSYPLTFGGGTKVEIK	92
HuMab-CD74-005-vcMMAE (antibody, IgG1, V domains shown, drug-linker vcMMAE alkylated to the cysteines of the reduced antibody (DAR 3.9-4.0), Antibody-drug conjugate of HuMab-CD74-005 (IgG1,kappa); also called vcMMAE-conjugate of HuMab-CD74-005) VH: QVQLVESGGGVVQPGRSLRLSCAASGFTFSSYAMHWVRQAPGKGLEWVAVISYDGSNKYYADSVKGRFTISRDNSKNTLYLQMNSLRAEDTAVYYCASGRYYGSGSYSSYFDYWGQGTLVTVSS VL: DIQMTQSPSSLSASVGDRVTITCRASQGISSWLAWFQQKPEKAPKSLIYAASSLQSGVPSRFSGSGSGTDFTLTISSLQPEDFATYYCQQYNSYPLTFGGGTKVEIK	88
